These data points were gathered from ChEMBL document CHEMBL6153083.

- Experiment Description: Antiproliferative activity against human L02 cells incubated for 72 hrs
- Format: toxicity, cell-based
Checkbox rule: IC50 at 72 h lower than 40 µM = Met; IC50 at 72 h not lower than 40 µM = Not met.

Check if IC50 at 72 h falls below 40 µM for `c1c(CN2CCCCCCC2)c(-c2cc3ccc4c(c3cn2)OCO4)cc2c1OCO2` .
Met

Given the entry `c1c(CN2CCC(C3CC3)CC2)c(-c2cc3ccc4c(c3cn2)OCO4)cc2c1OCO2` , would its reported IC50 at 72 h be below 40 µM?
Not met

Decide: IC50 at 72 h of `c1c(CN2CC3(CCCC3)C2)c(-c2cc3ccc4c(c3cn2)OCO4)cc2c1OCO2` strictly below 40 µM?
Not met

Please check: IC50 at 72 h for FC1(F)C2CCN(Cc3cc4c(cc3-c3cc5ccc6c(c5cn3)OCO6)OCO4)CC21 (stereo not given) , strictly under 40 µM or not?
Not met

Hello, I'm reviewing records and need to know if IC50 at 72 h of `OCCCC1CCN(Cc2cc3c(cc2-c2cc4ccc5c(c4cn2)OCO5)OCO3)CC1` is below 40 µM. Could you check?
Not met

Hi there! Is IC50 at 72 h for `CN1CCC(C2CCN(Cc3cc4c(cc3-c3cc5ccc6c(c5cn3)OCO6)OCO4)CC2)CC1` below 40 µM, do you know?
Not met

Strictly below 40 µM: is that where IC50 at 72 h of `c1c(CN2CCCC2)c(-c2cc3ccc4c(c3cn2)OCO4)cc2c1OCO2` sits?
Met

Take the compound `FC1CCN(Cc2cc3c(cc2-c2cc4ccc5c(c4cn2)OCO5)OCO3)CC1` and say whether its IC50 at 72 h is less than 40 µM.
Not met

hey, is IC50 at 72 h for O=C1CCC2CCN(Cc3cc4c(cc3-c3cc5ccc6c(c5cn3)OCO6)OCO4)CN12 (stereo not given) lower than 40 µM or not?
Not met

Input `CC1(CO)CCN(Cc2cc3c(cc2-c2cc4ccc5c(c4cn2)OCO5)OCO3)CC1` ; condition: IC50 at 72 h strictly below 40 µM. Does it hold?
Met

====

- Experiment Description: Antiproliferative activity against human BEAS-2B cells incubated for 72 hrs
- Format: toxicity, cell-based
Please respond with reported IC50 at 72 h for every item in the list.
Expressed in µM, but write only the number.

Recorded IC50 at 72 h for OC1CCCN(Cc2cc3c(cc2-c2cc4ccc5c(c4cn2)OCO5)OCO3)CC1 (centres undefined) , please?
21.1

Fill blank: measured IC50 at 72 h of the compound `c1c(CN2CC3CCC(C2)O3)c(-c2cc3ccc4c(c3cn2)OCO4)cc2c1OCO2` is ____.
57.3

Looking for the measured IC50 at 72 h of c1c(CN2CC3CC3C2)c(-c2cc3ccc4c(c3cn2)OCO4)cc2c1OCO2 (centres undefined) , can you help?
23.7

Need IC50 at 72 h of OCC1CCN(Cc2cc3c(cc2-c2cc4ccc5c(c4cn2)OCO5)OCO3)C1 (centres undefined) , thanks.
26.2

Any idea what its IC50 at 72 h is? The compound is CC1CC(C)CN(Cc2cc3c(cc2-c2cc4ccc5c(c4cn2)OCO5)OCO3)C1 (centres undefined)
27.5

Request the reported IC50 at 72 h associated with `CC(C)(O)C1CCN(Cc2cc3c(cc2-c2cc4ccc5c(c4cn2)OCO5)OCO3)CC1`
30.1

====

- Experiment Description: AUC (0 to t) in Sprague-Dawley rat at 10 mg/kg, ip measured after 24 hrs by LC-MS/MS analysis
- Format: ADME, organism-based
- Measurement Parameters: in vivo
Endpoint: AUC(0-t) at 24 h (ng·h/mL)
Expressed in ng·h/mL, but write only the number.

Would you kindly share the measured AUC(0-t) at 24 h for CC1CC(C)CN(Cc2cc3c(cc2-c2cc4ccc5c(c4cn2)OCO5)OCO3)C1 (configuration not stated) ?
736

Suppose we examine the molecule CCC1CCCC(C)N1Cc1cc2c(cc1-c1cc3ccc4c(c3cn1)OCO4)OCO2 (configuration not stated) ; what AUC(0-t) at 24 h value has been reported?
1180

====

- Experiment Description: MRT (0 to infinity) in Sprague-Dawley rat at 10 mg/kg, ip measured after 24 hrs by LC-MS/MS analysis
- Type: ADME, organism-based
- Measurement Parameters: in vivo
Endpoint: MRT inf (h)
State just the number; it will be interpreted in h.

For CCC1CCCC(C)N1Cc1cc2c(cc1-c1cc3ccc4c(c3cn1)OCO4)OCO2 (configuration not stated) , what is its reported MRT inf?
6.14

Please give the measured MRT inf for this compound: CC1CC(C)CN(Cc2cc3c(cc2-c2cc4ccc5c(c4cn2)OCO5)OCO3)C1 (configuration not stated)
5.19

====

- Experiment Description: Acute toxicity in Kunming mouse assessed as lethal dose
- Measurement Parameters: in vivo
Endpoint: LD50 (mg/kg)
Record the value in mg/kg, omitting the unit from your answer.

Quick one: LD50 of CC1CC(C)CN(Cc2cc3c(cc2-c2cc4ccc5c(c4cn2)OCO5)OCO3)C1 (configuration not stated) ?
300

I would be grateful if you could share the reported LD50 for CCC1CCCC(C)N1Cc1cc2c(cc1-c1cc3ccc4c(c3cn1)OCO4)OCO2 (configuration not stated) .
300

====

Exercise: for every item that follows, state its recorded IC50.
- System: NCI-H209
- Experiment Description: Antiproliferative activity against human NCI-H209 cells incubated for 72 hrs
- Assay type: functional, cell-based
- Measurement Parameters: NCI-H209, 72 h
Return type: number; implicit unit µM.

Field request: IC50 | item: FC1CCCN(Cc2cc3c(cc2-c2cc4ccc5c(c4cn2)OCO5)OCO3)CC1 (stereo not given)
58.3

# IC50 lookup, item `COc1ccc2cc3[n+](cc2c1OC)CCc1cc2c(cc1-3)OCO2`
65

So what does the record say about IC50 for CC(O)C1CCN(Cc2cc3c(cc2-c2cc4ccc5c(c4cn2)OCO5)OCO3)CC1 (stereo not given) ?
62.2

Requested field: IC50. Item: `COCC1CCN(Cc2cc3c(cc2-c2cc4ccc5c(c4cn2)OCO5)OCO3)CC1`
53.1

Quick one: IC50 for `CCCC1CCN(Cc2cc3c(cc2-c2cc4ccc5c(c4cn2)OCO5)OCO3)CC1` ?
64.1

What value of IC50 has been recorded for this entry: `c1c(CN2CCCCCCC2)c(-c2cc3ccc4c(c3cn2)OCO4)cc2c1OCO2`
26.8

For the molecule shown here, `c1c(CN2CC3(CCCC3)C2)c(-c2cc3ccc4c(c3cn2)OCO4)cc2c1OCO2` , give the reported IC50.
34.2

Would you kindly share the measured IC50 for `c1c(CN2CC3(CCCCC3)C2)c(-c2cc3ccc4c(c3cn2)OCO4)cc2c1OCO2` ?
31.8

GET /values?readout=IC50&item= `c1c(CN2CCCCCC2)c(-c2cc3ccc4c(c3cn2)OCO4)cc2c1OCO2`
39.5

For the molecule shown here, `OCC1CN(Cc2cc3c(cc2-c2cc4ccc5c(c4cn2)OCO5)OCO3)C1` , give the reported IC50.
79.5

// returns reported IC50 for input `OCCCC1CCN(Cc2cc3c(cc2-c2cc4ccc5c(c4cn2)OCO5)OCO3)CC1`
68.5

Consider the molecule shown here: `CC1CCN(Cc2cc3c(cc2-c2cc4ccc5c(c4cn2)OCO5)OCO3)CC1` What is its recorded IC50?
55.8

Would you mind telling me what IC50 value was observed for CCC1CCCCN1Cc1cc2c(cc1-c1cc3ccc4c(c3cn1)OCO4)OCO2 (stereo not given) ?
25.4

What does the data say about its IC50? Entry: CC1CC(C)CN(Cc2cc3c(cc2-c2cc4ccc5c(c4cn2)OCO5)OCO3)C1 (stereo not given)
36.8

====

- Experiment Description: Antiproliferative activity against human BEAS-2B cells incubated for 72 hrs
- Assay type: toxicity, cell-based
Endpoint: IC50 at 72 h (µM)
Value expressed in µM; do not type the unit.

// returns reported IC50 at 72 h for input `CC1(CO)CCN(Cc2cc3c(cc2-c2cc4ccc5c(c4cn2)OCO5)OCO3)CC1`
21.2

I'd like to know its IC50 at 72 h. The compound in question is `c1c(CN2CCCCC2)c(-c2cc3ccc4c(c3cn2)OCO4)cc2c1OCO2`
21.2

Quick check: IC50 at 72 h of `c1c(CN2CCCCCCC2)c(-c2cc3ccc4c(c3cn2)OCO4)cc2c1OCO2` ?
24.3

Which IC50 at 72 h value belongs to `c1c(CN2CC3(CCC3)C2)c(-c2cc3ccc4c(c3cn2)OCO4)cc2c1OCO2` ?
30.4

If you can, please state the reported IC50 at 72 h value of `FC1(F)CCCN(Cc2cc3c(cc2-c2cc4ccc5c(c4cn2)OCO5)OCO3)CC1` .
24.2

Query (compound): `c1c(CN2CC3(CCCC3)C2)c(-c2cc3ccc4c(c3cn2)OCO4)cc2c1OCO2` ; field requested: IC50 at 72 h
14.8

For the compound shown here, `CC1CCN(Cc2cc3c(cc2-c2cc4ccc5c(c4cn2)OCO5)OCO3)CC1` , give the reported IC50 at 72 h.
23.7

Name the reported IC50 at 72 h value associated with the compound CCC1CCCCN1Cc1cc2c(cc1-c1cc3ccc4c(c3cn1)OCO4)OCO2 (stereo not drawn)
20.7

Which IC50 at 72 h value is on record for `OCC1CN(Cc2cc3c(cc2-c2cc4ccc5c(c4cn2)OCO5)OCO3)C1` ?
23

So what does the record say about IC50 at 72 h for `CC1(C)CCN(Cc2cc3c(cc2-c2cc4ccc5c(c4cn2)OCO5)OCO3)C1` ?
17

Which measured IC50 at 72 h value corresponds to `FC1CN(Cc2cc3c(cc2-c2cc4ccc5c(c4cn2)OCO5)OCO3)C1` ?
75.6

Value lookup for IC50 at 72 h; key = COc1cc([C@@H]2c3cc4c(cc3[C@@H](O[C@@H]3O[C@@H]5CO[C@@H](C)O[C@H]5[C@H](O)[C@H]3O)[C@H]3COC(=O)[C@H]23)OCO4)cc(OC)c1O [ETOPOSIDE]
6.19

Item under review: CC1CCN1Cc1cc2c(cc1-c1cc3ccc4c(c3cn1)OCO4)OCO2 (stereo not drawn) . Reported IC50 at 72 h?
27.7

IC50 at 72 h for `COC(=O)C1CCN(Cc2cc3c(cc2-c2cc4ccc5c(c4cn2)OCO5)OCO3)CC1` ?
77.5

Value lookup for IC50 at 72 h; key = `c1c(CN2CC3(CCCCC3)C2)c(-c2cc3ccc4c(c3cn2)OCO4)cc2c1OCO2`
12.6

# lookup: IC50 at 72 h of FC1CCCN(Cc2cc3c(cc2-c2cc4ccc5c(c4cn2)OCO5)OCO3)CC1 (stereo not drawn)
33.7

Find the recorded IC50 at 72 h belonging to `c1c(CN2CCCCCC2)c(-c2cc3ccc4c(c3cn2)OCO4)cc2c1OCO2` and report it.
12.3

Record request: IC50 at 72 h value, item CC1CCCN(Cc2cc3c(cc2-c2cc4ccc5c(c4cn2)OCO5)OCO3)C1 (stereo not drawn)
14.3

Sample `COCC1CCN(Cc2cc3c(cc2-c2cc4ccc5c(c4cn2)OCO5)OCO3)CC1` — what was its IC50 at 72 h?
28.2

Consider the compound CC(O)C1CCN(Cc2cc3c(cc2-c2cc4ccc5c(c4cn2)OCO5)OCO3)CC1 (stereo not drawn) and give its measured IC50 at 72 h.
21.8

So what's the measured IC50 at 72 h for this one? CC1CCCCN1Cc1cc2c(cc1-c1cc3ccc4c(c3cn1)OCO4)OCO2 (stereo not drawn)
19.4

Given `CN1CCC(C2CCN(Cc3cc4c(cc3-c3cc5ccc6c(c5cn3)OCO6)OCO4)CC2)CC1` , state its recorded IC50 at 72 h.
12.2

Requested field: IC50 at 72 h. Item: CC(C)C1CCCCCN1Cc1cc2c(cc1-c1cc3ccc4c(c3cn1)OCO4)OCO2 (stereo not drawn)
26.5

Need IC50 at 72 h, item `c1c(CN2CCCCCCCC2)c(-c2cc3ccc4c(c3cn2)OCO4)cc2c1OCO2`
17

Return reported IC50 at 72 h; argument: `c1c(CN2CCCC2)c(-c2cc3ccc4c(c3cn2)OCO4)cc2c1OCO2`
29
